Test system: SK-MEL-2
Assay: NCI tumour cell line growth inhibition, 48 h
Activity calls are given as the source filed them. No stated cut-off is given here; in the data, active = GI50 up to about 1.1 µM and inactive = higher.
Outcome codes: active, inactive

molecule	assigned.class
CS(=O)(=O)Nc1ccc2ccccc2c1	inactive
N#CC(C#N)=CSc1ccccc1	inactive
N=c1n(C(=O)N2CCCC2)c2cc(Cl)ccc2n1C1=NCCN1	inactive
O=C1OC(=O)C23CSCC12C1C=CC3O1 (stereo not given)	inactive
NCC1Nc2ccccc2[C@@H](O)C1O (stereo not given in full)	inactive
Cc1n[nH]c(=O)n1/N=C/c1ccncc1	inactive
Cn1c(=O)n(-c2c3ccccc3c(Cl)c3ccccc23)n(C(C)(C)C)c1=O	inactive
C=C(CCC/C(C)=C/C=C/[C@@H](C)CCCc1ccoc1)C[C@@H]1OC(=O)[C@H](C)[C@@H]1O	inactive
O=C(NC(Cc1ccc(Cl)cc1)C(=O)O)c1ccc(I)cc1 (stereo not given)	inactive
COC(=O)N/N=C(/CCC(=O)Nc1ccc(C)c(C)c1)CC(=O)C(C)(C)C	inactive
NC(=O)OCC(COc1ccc(Cl)cc1)OC(=O)c1cc([N+](=O)[O-])cc([N+](=O)[O-])c1 (stereo not given)	inactive
C/C(=N/NC(=S)Nc1cccc(Cl)c1)c1ccccn1	inactive
O=c1oc2ccc(-n3c(=O)c4ccccc4c4ccccc4c3=O)cc2c2ccccc12	inactive
Oc1cc(Br)cc2cccnc12	inactive
Cc1ccc(O)c(C2=CC3=NNC(=O)C3C(c3cccc(Cl)c3)C2)c1 (stereo not given)	inactive
COC1=CC(=O)[C@@]2(C)C(C)[C@H](c3ccccc3)[C@H]2C1=O (stereo not given in full)	inactive
O=c1oc2ccccc2c(Nc2ccc3c(c2)Sc2ccccc2O3)c1[N+](=O)[O-]	inactive
C[C@H]1C(OCCOC2O[C@@H]3O[C@@]4(C)CC[C@H]5[C@H](C)CCC([C@H]2C)[C@@]35O4)O[C@@H]2O[C@@]3(C)CC[C@H]4[C@H](C)CCC1[C@@]24O3 (stereo not given in full)	inactive
COc1nc(N=P(c2ccccc2)(c2ccccc2)c2ccccc2)cc(=O)n1C	inactive
Cc1c(N2C(=O)C(Cl)C2/C=C/c2ccccc2)c(=O)n(-c2ccccc2)n1C (stereo not given)	inactive
Cc1[nH]n(-c2ccccc2)c(=O)c1C(N(CCc1ccccc1)C1=NCC(C)S1)(C(F)(F)F)C(F)(F)F (stereo not given)	inactive
CC1=NN(c2ccc(S(=O)(=O)O)cc2)C2(C1)C(Cl)C(=O)N2c1nc2ccccc2s1 (stereo not given)	inactive
COc1ccc(Cc2c3cc(O)c([O-])cc3cc[n+]2C)cc1	inactive
COc1cccc(/C(CC(O)(C(F)(F)F)C(F)(F)F)=N\N(C)C)c1	inactive
COc1cc([C@@H]2c3cc4c(cc3[C@@H](NC(=O)c3ccc(OC(C)=O)cc3)C3COC(=O)[C@@H]32)OCO4)cc(OC)c1O (stereo not given in full)	inactive
O=C(CBr)NCCc1c[nH]c2ccccc12	inactive
CC(C)=CCC[C@@H](C)C1=C(O)C(=O)C(C)=C(Nc2ccccc2)C1=O	inactive
CCOC(=O)c1cn(CC)c2ccc3c(c2c1=O)S(=O)(=O)C=C3	inactive
CC1OC(OC2C(Oc3cc(O)c4c(c3)O[C@H](c3ccc(O)cc3)CC4=O)OC(CO)C(O)C2O)C(O)C(O)C1O (stereo not given in full)	inactive
Clc1ccccc1C1N2CCCCC2[C@@H]2c3[nH]c4ccccc4c3CCN12 (stereo not given in full)	inactive
Nc1nc(Cl)cc(NCCCCCCCCNc2cc(Cl)nc(N)n2)n1	inactive
CCOC(=O)CC(C)C1(C(=O)OCC)CCCCC1=O (stereo not given)	inactive
C[C@H](NS(=O)(=O)c1ccc(NC(=O)c2ccccc2)cc1)C(=O)O	inactive
CCOc1ccccc1/N=C\c1c2ccccc2cc2ccccc12	inactive
O=C(NC(C(F)(F)F)(C(F)(F)F)P(=O)(c1ccccc1)c1ccccc1)C(C(F)(F)F)C(F)(F)F	inactive
O=C(c1ccsc1)c1cc2c(s1)C(=O)c1ccsc1C2=O	active
COc1cc2c(OC)c3cc(C)oc(=O)c3c(O)c2c(O)c1-c1c(OC)cc2c(OC)c3cc(C)oc(=O)c3c(O)c2c1O	inactive
CCc1ncc(C(C)(O)c2ccccc2)n1Cc1ccccc1 (stereo not given)	inactive
COc1ccc(/C=N\N2CC(=O)N3C4C=CC(CC4)N3C2=O)cc1 (stereo not given)	inactive
CCCC[Si](CCCC)(CCCC)O[C@@H](/C=C/C(=O)OCC)[C@H](Cc1ccccc1)O[Si](CCCC)(CCCC)CCCC	inactive
